- assay_notes: Fraction of soluble product on expression in E. coli, estimated from SDS-PAGE
- Type: physicochemical
- test_context: Table 7; Ylib002Naive.I selection; MGSSHHHHHHGSS-[Y#####]-A
- Experimental: E. coli T7E2 cells were transformed with plasmids containing the gene fragment of each respective Y variant. The resulting recombinant strains were generally cultivated in media supplemented with 50 μg/ml kanamycin at 30-37° C. in 50 ml scale using the EnPresso protocol (Enpresso GmbH). In order to induce protein expression, isopropyl-β-D-1-thiogalactopyranoside (IPTG) was added to a final concentration of 0.5 mM at an optical density at 600 nm (OD600) of approximately 10. […]
Entries annotated with measured Estimated soluble fraction
readout_label: Estimated soluble fraction (%)

substance: Y00299: insulin binding Y variant from Ylib002Naive.I, SEQ ID NO:132 (LAEAKEAAIAELDSKGVGAYQIKFIQVAKTVEQVQILKQAILADLPA; Engineered insulin binding Y variant)
readout_label: Estimated soluble fraction
u: %
value_measured: 75
--
substance: Y00345: insulin binding Y variant from Ylib002Naive.I, SEQ ID NO:138 (LAEAKEAAIAELDSKGVGAYQIKFIQVAKTVEAVQAIKQAILADLPA; Engineered insulin binding Y variant)
readout_label: Estimated soluble fraction
u: %
value_measured: 80
--
substance: Y00310: insulin binding Y variant from Ylib002Naive.I, SEQ ID NO:135 (LAEAKEAAIAELDSKGVGAYQIKFIQIAHTVEEVQLMKQAILADLPA; Engineered insulin binding Y variant)
readout_label: Estimated soluble fraction
u: %
value_measured: 86
